Please respond with reported microsomal CLint at 100 µM for every item in the list.
- experimental_details: Microsomal stability in human liver microsomes assessed as intrinsic clearance measured per mg protein at 100 uM preincubated for 15 mins followed by NADPH addition measured up to 60 mins by LC-MS/MS analysis
- Assay type: ADME, Microsome
- condition_summary: time < 75 min, read-out: CLH
Dear colleague, please return just the value in µL/min/mg, with no unit written.

Memo: `CCOC(=O)c1c(CSc2ccc(C)cc2C)n(Cc2ccc(C)cc2)c2cc(Br)c(O)c(CN(C)C)c12` , reported microsomal CLint at 100 µM: 512

Looking up `Cc1ccc(Cn2c(CSc3c(C)cc(C)cc3C)c(C(=O)NC3CCN(C(C)C)CC3)c3cc(O)c(Br)cc32)cc1` , I found its microsomal CLint at 100 µM recorded as 15.5

Consider `Cc1ccc(Cn2c(CSc3c(C)cc(C)cc3C)c(C(=O)NC(C)(C)C)c3cc(O)c(Br)cc32)cc1` . Its measured microsomal CLint at 100 µM is 242

Note to self: microsomal CLint at 100 µM recorded for `CN(C)CCCCNC(=O)c1c(CSc2ccc(F)cc2)n(C)c2cc(Br)c(O)cc12` was 22.2

----------
- experimental_details: Microsomal stability in mouse liver microsomes assessed as half life at 100 uM preincubated for 15 mins followed by NADPH addition measured up to 60 mins by LC-MS/MS analysis
- Format: ADME, Microsome
- condition_summary: time < 75 min
For each of the compounds below, state its half-life at 100 µM.
Please respond with the number in min and leave the unit unwritten.

GET /value?item= `Cc1ccc(Cn2c(CSc3c(C)cc(C)cc3C)c(C(=O)NC3CCN(C(C)C)CC3)c3cc(O)c(Br)cc32)cc1` &field=half-life at 100 µM returns 120

For reference, reported half-life at 100 µM for `CCOC(=O)c1c(CSc2ccc(C)cc2C)n(Cc2ccc(C)cc2)c2cc(Br)c(O)c(CN(C)C)c12` stands at 5.08

Form field half-life at 100 µM, entry `CCOC(=O)c1c(CSc2c(C)cc(C)cc2C)n(Cc2ccc(C)cc2)c2cc(Br)c(O)cc12` : 7.17

half-life at 100 µM reading for `Cc1ccc(Cn2c(CSc3c(C)cc(C)cc3C)c(C(=O)NC(C)(C)C)c3cc(O)c(Br)cc32)cc1` : 5.73

// field: half-life at 100 µM; key: `CN(C)CCCCNC(=O)c1c(CSc2ccc(F)cc2)n(C)c2cc(Br)c(O)cc12` ; value = 26.9

The compound listed as `Cc1ccc(Cn2c(CSc3c(C)cc(C)cc3C)c(C(=O)N3CCC(N4CCOCC4)CC3)c3cc(O)c(Br)cc32)cc1` has a reported half-life at 100 µM of 26.9

Record `Cc1ccc(Cn2c(CSc3c(C)cc(C)cc3C)c(C(=O)Nc3cnn(C)c3)c3cc(O)c(Br)cc32)cc1` , field half-life at 100 µM: 22.1

----------
- experimental_details: Microsomal stability in human liver microsomes assessed as compound remaining at 100 uM preincubated for 15 mins followed by NADPH addition measured after 60 mins by LC-MS/MS analysis
- Type: ADME, Microsome
- condition_summary: time 75 min, read-out: Stability
Label key: yes means remaining at 1 h, 100 µM under 10%; no means remaining at 1 h, 100 µM of 10% or more.

Problem: For the compound `Cc1ccc(Cn2c(CSc3c(C)cc(C)cc3C)c(C(=O)Nc3cnn(C)c3)c3cc(O)c(Br)cc32)cc1` , is remaining at 1 h, 100 µM under 10%? no

Determine if `Cc1ccc(Cn2c(CSc3c(C)cc(C)cc3C)c(C(=O)N3CCC(N4CCOCC4)CC3)c3cc(O)c(Br)cc32)cc1` shows remaining at 1 h, 100 µM strictly lower than 10%. no

remaining at 1 h, 100 µM under 10%? Item: `Cc1ccc(Cn2c(CSc3c(C)cc(C)cc3C)c(C(=O)NC3CCN(C(C)C)CC3)c3cc(O)c(Br)cc32)cc1` no

Say whether its remaining at 1 h, 100 µM is strictly beneath 10%. Entry: `Cc1ccc(Cn2c(CSc3c(C)cc(C)cc3C)c(C(=O)NC(C)(C)C)c3cc(O)c(Br)cc32)cc1` yes

# TODO verify remaining at 1 h, 100 µM < 10% strictly for this compound: `CN(C)CCCCNC(=O)c1c(CSc2ccc(F)cc2)n(C)c2cc(Br)c(O)cc12` no

Please check: remaining at 1 h, 100 µM for `CCOC(=O)c1c(CSc2c(C)cc(C)cc2C)n(Cc2ccc(C)cc2)c2cc(Br)c(O)cc12` , strictly under 10% or not? yes

Would you kindly verify if remaining at 1 h, 100 µM of `CCOC(=O)c1c(CSc2ccc(C)cc2C)n(Cc2ccc(C)cc2)c2cc(Br)c(O)c(CN(C)C)c12` is strictly less than 10%? yes

Hello, I'm reviewing records and need to know if remaining at 1 h, 100 µM of `CCOC(=O)c1c(CSc2ccc(C)cc2C)n(Cc2cccc3ccccc23)c2cc(Br)c(O)cc12` is below 10%. Could you check? no

Every entry's value here was drawn from ChEMBL document CHEMBL6134895.
